System: Nucleic Acid
Assay: Inhibitory concentration against ethidium bromide binding to DNA [poly(dA-dT)]
Assay type: nucleic-acid assay
reported_property: C50 (µM)

Cl.O=C(CC(CC(=O)NCCCCCCNc1c2ccccc2nc2ccccc12)Nc1c2ccccc2nc2ccccc12)NCCCCCCNc1c2ccccc2nc2ccccc12; 0.11
Cl.O=C(CCCC(=O)NCCCCCNc1c2ccccc2nc2ccccc12)NCCCCCNc1c2ccccc2nc2ccccc12; 0.28
Cl.O=C(CC(CC(=O)NCCCCNc1c2ccccc2nc2ccccc12)Nc1c2ccccc2nc2ccccc12)NCCCCNc1c2ccccc2nc2ccccc12; 0.08
Cl.O=C(CC(CC(=O)NCCCNc1c2ccccc2nc2ccccc12)Nc1c2ccccc2nc2ccccc12)NCCCNc1c2ccccc2nc2ccccc12; 0.1

[a] Cl.O=C(CC(CC(=O)NCCCCCCCNc1c2ccccc2nc2ccccc12)Nc1c2ccccc2nc2ccccc12)NCCCCCCCNc1c2ccccc2nc2ccccc12
[b] Cl.O=C(CCCC(=O)NCCCCCCNc1c2ccccc2nc2ccccc12)NCCCCCCNc1c2ccccc2nc2ccccc12
[c] Cl.O=C(CCCC(=O)NCCCCCCCNc1c2ccccc2nc2ccccc12)NCCCCCCCNc1c2ccccc2nc2ccccc12
List these items ordered by C50, big to small. Reply format: the labels, ordered as requested.
b, c, a

---

Tested on: P388
Assay: Percentage increase in life span (ILS) of compound treated tumor-bearing animals compared to tumor-bearing controls when treated at the optimal dose.
Type: functional, Mus musculus
reported_property: ILS (%)
Lab book: enter the figure in %, no units written.

Cl.O=C(CCCC(=O)NCCCCCNc1c2ccccc2nc2ccccc12)NCCCCCNc1c2ccccc2nc2ccccc12; 33
Cl.O=C(CC(CC(=O)NCCCCCNc1c2ccccc2nc2ccccc12)Nc1c2ccccc2nc2ccccc12)NCCCCCNc1c2ccccc2nc2ccccc12; 21
Cl.O=C(CCCC(=O)NCCCCNc1c2ccccc2nc2ccccc12)NCCCCNc1c2ccccc2nc2ccccc12; 30

API: value(readout=ILS, system=P388) for record `Cl.O=C(CC(CC(=O)NCCCCCCNc1c2ccccc2nc2ccccc12)Nc1c2ccccc2nc2ccccc12)NCCCCCCNc1c2ccccc2nc2ccccc12`
21

---

Tested on: Nucleic Acid
Test: Inhibitory concentration against ethidium bromide binding to DNA [poly(dG-dC)]
Assay type: nucleic-acid assay
reported_property: C50 (µM)

# count of solved cases: 5
Cl.O=C(CCCC(=O)NCCCCNc1c2ccccc2nc2ccccc12)NCCCCNc1c2ccccc2nc2ccccc12; 0.13
Cl.O=C(CCCC(=O)NCCCCCCCNc1c2ccccc2nc2ccccc12)NCCCCCCCNc1c2ccccc2nc2ccccc12; 0.23
Cl.O=C(CC(CC(=O)NCCCCCCNc1c2ccccc2nc2ccccc12)Nc1c2ccccc2nc2ccccc12)NCCCCCCNc1c2ccccc2nc2ccccc12; 0.11
NC(CC(=O)NCCCNc1c2ccccc2nc2ccccc12)CC(=O)NCCCNc1c2ccccc2nc2ccccc12; 0.21
Cl.O=C(CCCC(=O)NCCCCCCNc1c2ccccc2nc2ccccc12)NCCCCCCNc1c2ccccc2nc2ccccc12; 0.33

[I] Cl.O=C(CC(CC(=O)NCCCNc1c2ccccc2nc2ccccc12)Nc1c2ccccc2nc2ccccc12)NCCCNc1c2ccccc2nc2ccccc12
[II] Cl.O=C(CCCC(=O)NCCNc1c2ccccc2nc2ccccc12)NCCNc1c2ccccc2nc2ccccc12
Lab note: check whether I or II has the lower measured C50. State the label of the item chosen.
I
(I: 0.19 µM, II: 0.29 µM)

---

System: P388
Assay: Optimal dose administered ip as a solution in 0.1 mL of 30% v/v ethanol-water after intraperitoneal inoculation of 10e6 P388 leukemia cells.
Type: functional, Mus musculus
Recorded Optimal dose, one value per entry.
Lab book: enter the figure in mg/kg/day, no units written.

For `Cl.O=C(CC(CC(=O)NCCCCCCCNc1c2ccccc2nc2ccccc12)Nc1c2ccccc2nc2ccccc12)NCCCCCCCNc1c2ccccc2nc2ccccc12` , what is its reported Optimal dose?
20

Record: `Cl.O=C(CCCC(=O)NCCCCCCNc1c2ccccc2nc2ccccc12)NCCCCCCNc1c2ccccc2nc2ccccc12`
45

Record: `Cl.O=C(CCCC(=O)NCCCNc1c2ccccc2nc2ccccc12)NCCCNc1c2ccccc2nc2ccccc12`
13.3

Record: `Cl.O=C(CCCC(=O)NCCNc1c2ccccc2nc2ccccc12)NCCNc1c2ccccc2nc2ccccc12`
30

Record: `Cl.O=C(CCCC(=O)NCCCCCCCNc1c2ccccc2nc2ccccc12)NCCCCCCCNc1c2ccccc2nc2ccccc12`
30

Record: `Cl.O=C(CC(CC(=O)NCCCCNc1c2ccccc2nc2ccccc12)Nc1c2ccccc2nc2ccccc12)NCCCCNc1c2ccccc2nc2ccccc12`
8.9

Record: `Cl.O=C(CC(CC(=O)NCCNc1c2ccccc2nc2ccccc12)Nc1c2ccccc2nc2ccccc12)NCCNc1c2ccccc2nc2ccccc12`
3.9

---

Test system: P388
Assay: Optimal dose administered ip as a solution in 0.1 mL of 30% v/v ethanol-water after intraperitoneal inoculation of 10e6 P388 leukemia cells.
Type: functional, Mus musculus
Recorded Optimal dose, one value per entry.
Lab book: enter the figure in mg/kg/day, no units written.

Cl.O=C(CCCC(=O)NCCCCCNc1c2ccccc2nc2ccccc12)NCCCCCNc1c2ccccc2nc2ccccc12; 20
Cl.O=C(CC(CC(=O)NCCCCCNc1c2ccccc2nc2ccccc12)Nc1c2ccccc2nc2ccccc12)NCCCCCNc1c2ccccc2nc2ccccc12; 8.9
Cl.O=C(CC(CC(=O)NCCCNc1c2ccccc2nc2ccccc12)Nc1c2ccccc2nc2ccccc12)NCCCNc1c2ccccc2nc2ccccc12; 8.9
Cl.O=C(CCCC(=O)NCCCCNc1c2ccccc2nc2ccccc12)NCCCCNc1c2ccccc2nc2ccccc12; 20

Let us move to another entry and its Optimal dose.
For `Cl.O=C(CC(CC(=O)NCCCCCCNc1c2ccccc2nc2ccccc12)Nc1c2ccccc2nc2ccccc12)NCCCCCCNc1c2ccccc2nc2ccccc12` , what is its reported Optimal dose?
20
